// values below are reported viability, T/C
tested on: MPNST complex spheroid with HUVEC/MSC, growth, % test/control; assay: Anticancer human tumor MPNST cell line growth inhibition [Asc]; conditions: second compound 0.316 µM; first compound 1 µM; stronger effect = lower value;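 note: compounds left on spheroids for seven days before reading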
Kindly answer with a numeric value in %, unit omitted.

Worked examples, 2 compounds total:
- C#Cc1c(F)ccc2cc(O)cc(-c3ncc4c(N5CC6CCC(C5)N6)nc(OCC56CCCN5CC(F)C6)nc4c3F)c12 (stereo not drawn) + Cc1c(S(C)(=O)=O)c(-c2cc(F)cc(N3CCN(c4ccc(NS(=O)(=O)c5ccc(NC(CCN6CCC(C(=O)OCCCP(=O)(O)O)CC6)CSc6ccccc6)c(S(=O)(=O)C(F)(F)F)c5)cc4)CC3)c2)c(-c2ccc(Cl)cc2)n1C(C)C: 94.7
- CCN1CCN(Cc2ccc(Nc3ncc(F)c(-c4cc(F)c5nc(C)n(C(C)C)c5c4)n3)nc2)CC1 + Cc1c(S(C)(=O)=O)c(-c2cc(F)cc(N3CCN(c4ccc(NS(=O)(=O)c5ccc(NC(CCN6CCC(C(=O)OCCCP(=O)(O)O)CC6)CSc6ccccc6)c(S(=O)(=O)C(F)(F)F)c5)cc4)CC3)c2)c(-c2ccc(Cl)cc2)n1C(C)C: 58

Consider now this further compound.
The recorded viability, T/C for entry C=C(F)C(=O)N1CCN(c2nc(OCC3CCCN3C)nc3c2CCN(c2cccc4cccc(Cl)c24)C3)CC1CC#N (stereo not drawn) + Cc1c(S(C)(=O)=O)c(-c2cc(F)cc(N3CCN(c4ccc(NS(=O)(=O)c5ccc(NC(CCN6CCC(C(=O)OCCCP(=O)(O)O)CC6)CSc6ccccc6)c(S(=O)(=O)C(F)(F)F)c5)cc4)CC3)c2)c(-c2ccc(Cl)cc2)n1C(C)C equals 58

Each recorded value in this set is attributed to PubChem BioAssay AID1963442.
